Cited source: ChEMBL document CHEMBL4145448

assay: Selectivity index, ratio of CC50 for human HepG2 cells in presence of 1% FBS to MIC for Escherichia coli N2381; assay type: toxicity; conditions: read-out: Selectivity Index
recorded_metric: selectivity ratio
Answers are plain numbers.

mol: N#Cc1ccc2c(c1)[I+]c1ccccc1-2
recorded_metric: selectivity ratio
reading: 0.05
--
mol: c1ccc2c(c1)[I+]c1c-2ccc2ccccc12
recorded_metric: selectivity ratio
reading: 0.09
--
mol: Fc1ccc2c(c1)[I+]c1ccccc1-2
recorded_metric: selectivity ratio
reading: 0.08
--
mol: Clc1ccc2c(c1)[I+]c1ccccc1-2
recorded_metric: selectivity ratio
reading: 0.13
--
mol: Fc1cccc2c1-c1ccccc1[I+]2
recorded_metric: selectivity ratio
reading: 4.2

Dear colleague, could you send me selectivity ratio for each of the items below? Thanks.
1. COc1cccc2c1-c1ccccc1[I+]2
2. COc1ccc2c(c1)[I+]c1ccccc1-2
3. Fc1ccc2c(c1)-c1ccccc1[I+]2

[0.55, 0.21, 0.67]
